# Test method notes: MTT cytotoxicity assay on Vero cells
# Assay type: cell-based
# Test parameters: MTT, calculated after 2 h of peptide treatment
Where a SMILES comes first, the peptide text is derived from it. [ ]: non-standard residue; d: D form.
I'd be grateful if you could share measured CC50 for these entries.

CC[C@H](C)[C@H](NC(=O)[C@H](CCCNC(=N)N)NC(=O)[C@H]1CCCN1C(=O)[C@@H](CC(C)C)NC(=O)[C@H](Cc1ccccc1)NC(=O)[C@H](CCCCN)NC(=O)[C@H](CO)NC(=O)[C@H](Cc1ccccc1)NC(=O)[C@H](Cc1c[nH]c2ccccc12)NC(=O)[C@@H]1CCCN1C(=O)[C@@H](NC(=O)[C@@H](N)Cc1ccccc1)C(C)C)C(=O)N[C@@H](CC(C)C)C(N)=O [TL3] (H-FVPWFSKF[dL][dP]RIL-NH2)	> 100 µM

List the reported CC50 of each compound below.
1. CC[C@H](C)[C@H](NC(=O)[C@H](CCCNC(=N)N)NC(=O)[C@@H](CCCCN)NC(=O)[C@@H](CC(C)C)NC(=O)[C@H](Cc1ccccc1)NC(=O)[C@H](CCCCN)NC(=O)[C@H](CO)NC(=O)[C@H](Cc1ccccc1)NC(=O)[C@H](Cc1c[nH]c2ccccc12)NC(=O)[C@@H]1CCCN1C(=O)[C@@H](NC(=O)[C@@H](N)Cc1ccccc1)C(C)C)C(=O)N[C@@H](CC(C)C)C(N)=O [TL9] (H-FVPWFSKF[dL][dK]RIL-NH2)
2. CC[C@H](C)[C@H](NC(=O)[C@H](CCCNC(=N)N)NC(=O)[C@H](CCCCN)NC(=O)[C@@H](CC(C)C)NC(=O)[C@H](Cc1ccccc1)NC(=O)[C@H](CCCCN)NC(=O)[C@H](CO)NC(=O)[C@H](Cc1ccccc1)NC(=O)[C@H](Cc1c[nH]c2ccccc12)NC(=O)[C@@H]1CCCN1C(=O)[C@@H](NC(=O)[C@@H](N)Cc1ccccc1)C(C)C)C(=O)N[C@@H](CC(C)C)C(N)=O [TL8] (H-FVPWFSKF[dL]KRIL-NH2)

Marked response:
1. 45.9 µM
2. 22.3 µM

* * *

# System: influenza virus (subtype H1N1)
# Test parameters: influenza virus (subtype, 2 h)
Where a SMILES comes first, the peptide text is derived from it. [ ]: non-standard residue; d: D form. The star is where a group is joined. Hyp = O=C(O)[C@@H]1C[C@@H](O)CN1; Tridecanoyl = CCCCCCCCCCCCC(=O)*; dNle = CCCC[C@@H](N)C(=O)O; Nle = CCCC[C@H](N)C(=O)O
Readout name: IC50 (µM)
Answers are plain numbers, in µM.

Observe how each entry below is paired with its result.
CCCCCCCCCCCCC(=O)N[C@@H](Cc1ccccc1)C(=O)N[C@H](C(=O)N1CCC[C@H]1C(=O)N[C@@H](Cc1c[nH]c2ccccc12)C(=O)N[C@@H](Cc1ccccc1)C(=O)N[C@@H](CO)C(=O)N[C@@H](CCCCN)C(=O)N[C@@H](Cc1ccccc1)C(=O)N[C@H](CC(C)C)C(=O)N[C@@H](CCCC)C(=O)N[C@@H](CCCNC(=N)N)C(=O)N[C@H](C(=O)N[C@@H](CC(C)C)C(N)=O)[C@@H](C)CC)C(C)C [TL6.6] (Tridecanoyl-FVPWFSKF[dL][Nle]RIL-NH2)	3.39
CC[C@H](C)[C@H](NC(=O)[C@H](CCCNC(=N)N)NC(=O)[C@@H]1C[C@@H](O)CN1C(=O)[C@@H](CC(C)C)NC(=O)[C@H](Cc1ccccc1)NC(=O)[C@H](CCCCN)NC(=O)[C@H](CO)NC(=O)[C@H](Cc1ccccc1)NC(=O)[C@H](Cc1c[nH]c2ccccc12)NC(=O)[C@@H]1CCCN1C(=O)[C@@H](NC(=O)[C@@H](N)Cc1ccccc1)C(C)C)C(=O)N[C@@H](CC(C)C)C(N)=O [TL4] (H-FVPWFSKF[dL][Hyp]RIL-NH2)	16.3
CCCC[C@@H](NC(=O)[C@@H](CC(C)C)NC(=O)[C@H](Cc1ccccc1)NC(=O)[C@H](CCCCN)NC(=O)[C@H](CO)NC(=O)[C@H](Cc1ccccc1)NC(=O)[C@H](Cc1c[nH]c2ccccc12)NC(=O)[C@@H]1CCCN1C(=O)[C@@H](NC(=O)[C@@H](N)Cc1ccccc1)C(C)C)C(=O)N[C@@H](CCCNC(=N)N)C(=O)N[C@H](C(=O)N[C@@H](CC(C)C)C(N)=O)[C@@H](C)CC [TL7] (H-FVPWFSKF[dL][dNle]RIL-NH2)	4.45
CCCC[C@H](NC(=O)[C@@H](CC(C)C)NC(=O)[C@H](Cc1ccccc1)NC(=O)[C@H](CCCCN)NC(=O)[C@H](CO)NC(=O)[C@H](Cc1ccccc1)NC(=O)[C@H](Cc1c[nH]c2ccccc12)NC(=O)[C@@H]1CCCN1C(=O)[C@@H](NC(=O)[C@@H](N)Cc1ccccc1)C(C)C)C(=O)N[C@@H](CCCNC(=N)N)C(=O)N[C@H](C(=O)N[C@@H](CC(C)C)C(N)=O)[C@@H](C)CC [TL6] (H-FVPWFSKF[dL][Nle]RIL-NH2)	2.66

Exam item: Which value of IC50 has been reported for CC[C@H](C)[C@H](NC(=O)[C@H](CCCNC(=N)N)NC(=O)[C@@H](Cc1c[nH]c2ccccc12)NC(=O)[C@@H](CC(C)C)NC(=O)[C@H](Cc1ccccc1)NC(=O)[C@H](CCCCN)NC(=O)[C@H](CO)NC(=O)[C@H](Cc1ccccc1)NC(=O)[C@H](Cc1c[nH]c2ccccc12)NC(=O)[C@@H]1CCCN1C(=O)[C@@H](NC(=O)[C@@H](N)Cc1ccccc1)C(C)C)C(=O)N[C@@H](CC(C)C)C(N)=O [TL11] (H-FVPWFSKF[dL][dW]RIL-NH2) in the records?
Marked response: 3.05
